# Test system: 485176-168-R4-J1-PDC spheroids with HUVEC/MSC, viability
# TEST DESCRIPTION: Anticancer human tumor 485176-168-R4-J1-PDC patient-derived pancreatic adenocarcinoma cell line growth inhibition [GQUAD]
# EXPERIMENTAL PARAMETERS: curve of first compound; second compound 0.1 µM
pIC50: −log10 of the molar value.
What pIC50 was measured for each of the following?

The cases that follow already have their pIC50 on record.
O=C(c1cc(Cc2n[nH]c(=O)c3ccccc23)ccc1F)N1CCN(C(=O)C2CC2)CC1 + CN(C)c1ccc(Nc2c3ccc(NC(=O)CCN4CCCC4)cc3nc3cc(NC(=O)CCN4CCCC4)ccc23)cc1	< 5.00
CC1COCCN1c1cc(-c2ccnn2C)c2ccnc(-c3ccn[nH]3)c2n1 (stereo not given) + Cc1cnc(CNC(=O)c2c(=O)c3ccc(N4CCCN(C)CC4)nc3n3c2sc2ccccc23)cn1	> 7.50
CC(C)n1c(=O)n(C)c2cnc3cc(F)c(-c4ccc(OCCCN5CCCCC5)nc4)cc3c21 + Cc1[nH]c2ccc(F)cc2c1-c1nc2c3cccnc3c3ncccc3c2[nH]1	< 5.00
CC1COCCN1c1cc(-c2ccnn2C)c2ccnc(-c3ccn[nH]3)c2n1 (stereo not given) + Cc1[nH]c2ccc(F)cc2c1-c1nc2c3cccnc3c3ncccc3c2[nH]1	7.07
O=C(NO)c1cnc(N2CCN(S(=O)(=O)c3ccc4ccccc4c3)CC2)nc1 + Cc1cnc(CNC(=O)c2c(=O)c3ccc(N4CCCN(C)CC4)nc3n3c2sc2ccccc23)cn1	6.73
CC(C)(O)C1CCC(Nc2ccc3ncc(-c4cccc(C(F)(F)F)c4)n3n2)CC1 (stereo not given) + CN(C)c1ccc(Nc2c3ccc(NC(=O)CCN4CCCC4)cc3nc3cc(NC(=O)CCN4CCCC4)ccc23)cc1	< 5.00
CC(=O)O[C@H]1C(=O)[C@@]2(C)[C@H]([C@H](OC(=O)c3ccccc3)[C@]3(O)C[C@H](OC(=O)[C@H](O)[C@@H](NC(=O)c4ccccc4)c4ccccc4)C(C)=C1C3(C)C)[C@]1(OC(C)=O)CO[C@@H]1C[C@@H]2O + Cc1cnc(CNC(=O)c2c(=O)c3ccc(N4CCCN(C)CC4)nc3n3c2sc2ccccc23)cn1	> 7.50
CC[C@@]1(O)C(=O)OCc2c1cc1n(c2=O)Cc2cc3c(CN(C)C)c(O)ccc3nc2-1 + Cc1cnc(CNC(=O)c2c(=O)c3ccc(N4CCCN(C)CC4)nc3n3c2sc2ccccc23)cn1	7.23

Fill in pIC50 for each of the 2 compounds listed.
1. Cn1ncnc1[C@H]1c2n[nH]c(=O)c3cc(F)cc(c23)N[C@@H]1c1ccc(F)cc1 + Cc1[nH]c2ccc(F)cc2c1-c1nc2c3cccnc3c3ncccc3c2[nH]1
2. CCCS(=O)(=O)Nc1ccc(F)c(C(=O)c2c[nH]c3ncc(-c4ccc(Cl)cc4)cc23)c1F + Cc1cnc(CNC(=O)c2c(=O)c3ccc(N4CCCN(C)CC4)nc3n3c2sc2ccccc23)cn1

1. < 6.50
2. < 5.00

* * *

What viability, T/C was measured for each of the following?
# Test system: 485176-168-R4-J1-PDC spheroids with HUVEC/MSC, viability
# TEST DESCRIPTION: Anticancer human tumor 485176-168-R4-J1-PDC cell line growth inhibition [GQUAD];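 further: spheroids exposed to compounds for seven days before readout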;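 on viability, T/C: percent viability relative to DMSO vehicle control wells as 100%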
# EXPERIMENTAL PARAMETERS: second compound 0.1 µM; first compound 0.0316 µM; stronger effect = lower value
Answers are plain numbers, in %.

The cases that follow already have their viability, T/C on record.
O=C(c1cc(Cc2n[nH]c(=O)c3ccccc23)ccc1F)N1CCN(C(=O)C2CC2)CC1 + CN(C)c1ccc(Nc2c3ccc(NC(=O)CCN4CCCC4)cc3nc3cc(NC(=O)CCN4CCCC4)ccc23)cc1	96.3
CC1COCCN1c1cc(-c2ccnn2C)c2ccnc(-c3ccn[nH]3)c2n1 (stereo not drawn) + CN(C)c1ccc(Nc2c3ccc(NC(=O)CCN4CCCC4)cc3nc3cc(NC(=O)CCN4CCCC4)ccc23)cc1	84.2
O=C(NO)c1cnc(N2CCN(S(=O)(=O)c3ccc4ccccc4c3)CC2)nc1 + CN(C)c1ccc(Nc2c3ccc(NC(=O)CCN4CCCC4)cc3nc3cc(NC(=O)CCN4CCCC4)ccc23)cc1	85.5

Fill in viability, T/C for each of the 7 compounds listed.
1. CC1COCCN1c1cc(C2(S(C)(=N)=O)CC2)nc(-c2ccnc3[nH]ccc23)n1 (stereo not drawn) + CN(C)c1ccc(Nc2c3ccc(NC(=O)CCN4CCCC4)cc3nc3cc(NC(=O)CCN4CCCC4)ccc23)cc1
2. Cc1cccc(N(C)C(=O)C2C(O)CCN2c2nc(C)cc(C(F)(F)F)c2C#N)c1 (stereo not drawn) + Cc1[nH]c2ccc(F)cc2c1-c1nc2c3cccnc3c3ncccc3c2[nH]1
3. C=CCn1c(=O)c2cnc(Nc3ccc(N4CCN(C)CC4)cc3)nc2n1-c1cccc(C(C)(C)O)n1 + Cc1cnc(CNC(=O)c2c(=O)c3ccc(N4CCCN(C)CC4)nc3n3c2sc2ccccc23)cn1
4. CCCS(=O)(=O)Nc1ccc(F)c(C(=O)c2c[nH]c3ncc(-c4ccc(Cl)cc4)cc23)c1F + Cc1cnc(CNC(=O)c2c(=O)c3ccc(N4CCCN(C)CC4)nc3n3c2sc2ccccc23)cn1
5. CC1COCCN1c1cc(-c2ccnn2C)c2ccnc(-c3ccn[nH]3)c2n1 (stereo not drawn) + Cc1cnc(CNC(=O)c2c(=O)c3ccc(N4CCCN(C)CC4)nc3n3c2sc2ccccc23)cn1
6. Cc1[nH]c2ccccc2c1CCNCc1ccc(/C=C/C(=O)NO)cc1 + Cc1[nH]c2ccc(F)cc2c1-c1nc2c3cccnc3c3ncccc3c2[nH]1
7. Nc1ccn(C2OC(CO)C(O)C2(F)F)c(=O)n1 (stereo not drawn) + Cc1[nH]c2ccc(F)cc2c1-c1nc2c3cccnc3c3ncccc3c2[nH]1

1: 100; 2: 85.9; 3: 69.3; 4: 63.8; 5: 22.2; 6: 89; 7: 56.6

Fill in viability, T/C for each of the 3 compounds listed.
1. C#Cc1c(F)ccc2cc(O)cc(-c3ncc4c(N5CC6CCC(C5)N6)nc(OCC56CCCN5CC(F)C6)nc4c3F)c12 (stereo not drawn) + Cc1cnc(CNC(=O)c2c(=O)c3ccc(N4CCCN(C)CC4)nc3n3c2sc2ccccc23)cn1
2. COc1ccc([C@@H](O)c2cc(-c3ncnc4cc(N5CCOCC5)ccc34)c(F)cc2Cl)nn1 + Cc1[nH]c2ccc(F)cc2c1-c1nc2c3cccnc3c3ncccc3c2[nH]1
3. CC[C@@]1(O)C(=O)OCc2c1cc1n(c2=O)Cc2cc3c(CN(C)C)c(O)ccc3nc2-1 + Cc1[nH]c2ccc(F)cc2c1-c1nc2c3cccnc3c3ncccc3c2[nH]1

[78.4, 91.9, 89.8]

* * *

# Test system: 485176-168-R4-J1-PDC spheroids with HUVEC/MSC, viability
# TEST DESCRIPTION: Anticancer human tumor 485176-168-R4-J1-PDC cell line growth inhibition [GQUAD];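 further: spheroids exposed to compounds for seven days before readout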;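 on viability, T/C: percent viability relative to DMSO vehicle control wells as 100%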
# EXPERIMENTAL PARAMETERS: second compound 0.1 µM; first compound 0.00999 µM; stronger effect = lower value
MEASURED PROPERTY: viability, T/C (%)
Answers are plain numbers, in %.

The cases that follow already have their viability, T/C on record.
CC[C@@]1(O)C(=O)OCc2c1cc1n(c2=O)Cc2cc3c(CN(C)C)c(O)ccc3nc2-1 + Cc1cnc(CNC(=O)c2c(=O)c3ccc(N4CCCN(C)CC4)nc3n3c2sc2ccccc23)cn1	88.9
Cc1[nH]c2ccccc2c1CCNCc1ccc(/C=C/C(=O)NO)cc1 + CN(C)c1ccc(Nc2c3ccc(NC(=O)CCN4CCCC4)cc3nc3cc(NC(=O)CCN4CCCC4)ccc23)cc1	89.2
CCc1c2c(nc3ccc(O)cc13)-c1cc3c(c(=O)n1C2)COC(=O)[C@]3(O)CC + CN(C)c1ccc(Nc2c3ccc(NC(=O)CCN4CCCC4)cc3nc3cc(NC(=O)CCN4CCCC4)ccc23)cc1	48.1
Cn1ncnc1[C@H]1c2n[nH]c(=O)c3cc(F)cc(c23)N[C@@H]1c1ccc(F)cc1 + Cc1cnc(CNC(=O)c2c(=O)c3ccc(N4CCCN(C)CC4)nc3n3c2sc2ccccc23)cn1	75.8

Fill in the blank: the reported viability, T/C of CCc1c2c(nc3ccc(O)cc13)-c1cc3c(c(=O)n1C2)COC(=O)[C@]3(O)CC + Cc1cnc(CNC(=O)c2c(=O)c3ccc(N4CCCN(C)CC4)nc3n3c2sc2ccccc23)cn1 is ____. 26.6

* * *

# System: 485176-168-R4-J1-PDC spheroids with HUVEC/MSC, viability
# TEST DESCRIPTION: Anticancer human tumor 485176-168-R4-J1-PDC cell line growth inhibition [GQUAD];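 further: spheroids exposed to compounds for seven days before readout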;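 on viability, T/C: percent viability relative to DMSO vehicle control wells as 100%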
# EXPERIMENTAL PARAMETERS: second compound 0.316 µM; first compound 3.16 µM; stronger effect = lower value
Rule for this label: class 1 means viability, T/C is less than 40%; class 0 means viability, T/C is at least 40%.

C=CCn1c(=O)c2cnc(Nc3ccc(N4CCN(C)CC4)cc3)nc2n1-c1cccc(C(C)(C)O)n1 + Cc1cnc(CNC(=O)c2c(=O)c3ccc(N4CCCN(C)CC4)nc3n3c2sc2ccccc23)cn1	class 1

Determine if COc1cc(C2c3cc4c(cc3C(OC3OC5COC(C)OC5C(O)C3O)C3COC(=O)C23)OCO4)cc(OC)c1O (stereo not drawn) + CN(C)c1ccc(Nc2c3ccc(NC(=O)CCN4CCCC4)cc3nc3cc(NC(=O)CCN4CCCC4)ccc23)cc1 shows viability, T/C strictly lower than 40%. class 1

Now the molecule C=CC(=O)N1CCN(c2nc(=O)n(-c3c(C)ccnc3C(C)C)c3nc(-c4c(O)cccc4F)c(F)cc23)C(C)C1 (stereo not drawn) + Cc1cnc(CNC(=O)c2c(=O)c3ccc(N4CCCN(C)CC4)nc3n3c2sc2ccccc23)cn1 class 0

Now the molecule COc1cccc2c1C(=O)c1c(O)c3c(c(O)c1C2=O)CC(O)(C(=O)CO)CC3OC1CC(N)C(O)C(C)O1 (stereo not drawn) + Cc1[nH]c2ccc(F)cc2c1-c1nc2c3cccnc3c3ncccc3c2[nH]1 class 1

Now the molecule Cc1cccc(N(C)C(=O)C2C(O)CCN2c2nc(C)cc(C(F)(F)F)c2C#N)c1 (stereo not drawn) + Cc1[nH]c2ccc(F)cc2c1-c1nc2c3cccnc3c3ncccc3c2[nH]1 class 0

Now the molecule Cc1cccc(N(C)C(=O)C2C(O)CCN2c2nc(C)cc(C(F)(F)F)c2C#N)c1 (stereo not drawn) + Cc1cnc(CNC(=O)c2c(=O)c3ccc(N4CCCN(C)CC4)nc3n3c2sc2ccccc23)cn1 class 0

Now the molecule CC(=O)O[C@H]1C(=O)[C@@]2(C)[C@H]([C@H](OC(=O)c3ccccc3)[C@]3(O)C[C@H](OC(=O)[C@H](O)[C@@H](NC(=O)c4ccccc4)c4ccccc4)C(C)=C1C3(C)C)[C@]1(OC(C)=O)CO[C@@H]1C[C@@H]2O + Cc1[nH]c2ccc(F)cc2c1-c1nc2c3cccnc3c3ncccc3c2[nH]1 class 1

Now the molecule COc1cc(C2c3cc4c(cc3C(OC3OC5COC(C)OC5C(O)C3O)C3COC(=O)C23)OCO4)cc(OC)c1O (stereo not drawn) + Cc1[nH]c2ccc(F)cc2c1-c1nc2c3cccnc3c3ncccc3c2[nH]1 class 1

Now the molecule C=CCn1c(=O)c2cnc(Nc3ccc(N4CCN(C)CC4)cc3)nc2n1-c1cccc(C(C)(C)O)n1 + CN(C)c1ccc(Nc2c3ccc(NC(=O)CCN4CCCC4)cc3nc3cc(NC(=O)CCN4CCCC4)ccc23)cc1 class 1

Now the molecule CC1COCCN1c1cc(C2(S(C)(=N)=O)CC2)nc(-c2ccnc3[nH]ccc23)n1 (stereo not drawn) + Cc1cnc(CNC(=O)c2c(=O)c3ccc(N4CCCN(C)CC4)nc3n3c2sc2ccccc23)cn1 class 1

Now the molecule CC1COCCN1c1cc(-c2ccnn2C)c2ccnc(-c3ccn[nH]3)c2n1 (stereo not drawn) + Cc1[nH]c2ccc(F)cc2c1-c1nc2c3cccnc3c3ncccc3c2[nH]1 class 1

Now the molecule Nc1ccn(C2OC(CO)C(O)C2(F)F)c(=O)n1 (stereo not drawn) + CN(C)c1ccc(Nc2c3ccc(NC(=O)CCN4CCCC4)cc3nc3cc(NC(=O)CCN4CCCC4)ccc23)cc1 class 1

Now the molecule O=C(c1cc(Cc2n[nH]c(=O)c3ccccc23)ccc1F)N1CCN(C(=O)C2CC2)CC1 + Cc1[nH]c2ccc(F)cc2c1-c1nc2c3cccnc3c3ncccc3c2[nH]1 class 0
